Listing of recorded CC50 at 24 h by entry.
- assay procedure: Cytotoxicity against keratinocyte cells (Alamar blue)
- Assay type: cell-based, human
- condition: human, adult human epidermal keratinocytes (Heka); 24 hrs treatment, Alamar blue; read-out: Keratinocyte IC50
measured property: CC50 at 24 h (µg/mL)

chemical structure | measured
Cc1cc(=O)c(O)cc2c1C[C@H]1CC(C)(C)/C=C/C[C@@]3(C)Oc4cc(O)cc(C)c4C[C@@H]3C[C@H](O)[C@]1(C)O2 | 13
C/C1=C\CC(C)(C)/C=C/C[C@@]2(C)Oc3cc(O)c(=O)cc(C)c3C[C@@H]2C[C@H]1O | 50

----------
- assay procedure: Cytotoxicity against fibroblast cells (Alamar blue)
- Type: cell-based, human
- condition: human; 24 hrs treatment, Alamar blue; read-out: Fibroblast IC50

chemical structure | CC50 at 24 h (µg/mL)
Cc1cc(=O)c(O)cc2c1C[C@H]1CC(C)(C)/C=C/C[C@@]3(C)Oc4cc(O)c(=O)cc(C)c4C[C@@H]3C[C@H](O)[C@]1(C)O2 | 11

----------
- assay procedure: Cytotoxicity against fibroblast cells (Alamar blue)
- Assay type: cell-based, human
- condition: human, human foreskin BJ fibroblast cells (ATCC CRL-2522); 24 hrs treatment, Alamar blue; read-out: Fibroblast IC50
Quick list: CC50 at 24 h per entry.
measured property: CC50 at 24 h (µg/mL)

chemical structure | measured property | value units | value relation sign | measured
Cc1cc(=O)c(O)cc2c1C[C@H]1CC(C)(C)/C=C/C[C@@]3(C)Oc4cc(O)cc(C)c4C[C@@H]3C[C@H](O)[C@]1(C)O2 | CC50 at 24 h | µg/mL | = | 14
C/C1=C\CC(C)(C)/C=C/C[C@@]2(C)Oc3cc(O)c(=O)cc(C)c3C[C@@H]2C[C@H]1O | CC50 at 24 h | µg/mL | > | 128

----------
- System: Adult human epidermal keratinocytes (Heka)
- assay procedure: Cytotoxicity against keratinocyte cells (Alamar blue)
- Assay type: cell-based
- condition: 24 hrs treatment
measured property: Keratinocyte MIC

compound | measured
[O-]n1ccccc1=S.[O-]n1ccccc1=S.[Zn+2] [zinc pyrithione, zinc salt of 1-hydroxy-2-pyridinethione, reference compound] | 1 µg/mL
Cc1cc(=O)c(O)cc2c1C[C@H]1CC(C)(C)/C=C/C[C@@]3(C)Oc4cc(O)c(=O)cc(C)c4C[C@@H]3C[C@H](O)[C@]1(C)O2 | 64 µg/mL
Cc1cc(=O)c(O)cc2c1C[C@H]1CC(C)(C)/C=C/C[C@@]3(C)Oc4cc(O)cc(C)c4C[C@@H]3C[C@H](O)[C@]1(C)O2 | 32 µg/mL
C/C1=C\CC(C)(C)/C=C/C[C@@]2(C)Oc3cc(O)c(=O)cc(C)c3C[C@@H]2C[C@H]1O | >128 µg/mL
